# Tgt: IDO1 (Homo sapiens, UniProt P14902)
# Construct: HeLa cells were treated with a test compound in the presence of IFNγ, which induces IDO1 expression; host or cells: H1-HeLa cells, IDO1 induced with IFNγ
# Sequence (P14902 whole entry): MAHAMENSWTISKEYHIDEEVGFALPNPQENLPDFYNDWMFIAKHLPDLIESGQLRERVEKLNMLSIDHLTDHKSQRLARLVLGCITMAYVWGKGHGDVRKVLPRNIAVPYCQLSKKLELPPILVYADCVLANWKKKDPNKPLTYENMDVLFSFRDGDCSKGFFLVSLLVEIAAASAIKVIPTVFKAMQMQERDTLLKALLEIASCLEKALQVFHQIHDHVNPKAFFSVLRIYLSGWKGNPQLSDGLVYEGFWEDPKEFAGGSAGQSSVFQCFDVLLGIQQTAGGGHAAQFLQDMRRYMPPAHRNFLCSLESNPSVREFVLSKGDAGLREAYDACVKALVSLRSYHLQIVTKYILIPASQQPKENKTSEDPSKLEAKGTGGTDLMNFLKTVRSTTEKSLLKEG
# Protocol Notes: Cell-based (HeLa) assay for measurement of IDO1 inhibition (kynurenine levels in supernatant after IFNγ induction)
# Condition Details: HeLa cells, IFNγ-induced IDO1, kynurenine in supernatant after 48 hour incubation; geometric mean of a minimum of four determinations

- Structure Notation: "O/N=C(\\Nc1ccc(F)c(Cl)c1)c1ccnc2nc(CCN3CC[C@@H](O)C3)[nH]c12"
  EC50 / nM: 3210
- Structure Notation: "O/N=C(\\Nc1cccc(Br)c1)c1ccnc2nc[nH]c12"
  EC50 / nM: 111
- Structure Notation: "CC(C)c1cc(N/C(=N\\O)c2ccnc3nc[nH]c23)ccc1F"
  EC50 / nM: 5100
- Structure Notation: "O/N=C(\\Nc1ccc(F)c(Cl)c1)c1ccnc2nc(CCN3CCCCC3)[nH]c12"
  EC50 / nM: 241
- Structure Notation: "O/N=C(\\Nc1ccc(F)c(Cl)c1)c1ccnc2nc(CCN3CCC(Cc4ccccc4)CC3)[nH]c12"
  EC50 / nM: 675
- Structure Notation: "O/N=C(\\Nc1ccc2occc2c1)c1ccnc2nc[nH]c12"
  EC50 / nM: 1480
- Structure Notation: "CN(C)CCNc1nc2c(F)c(F)cc(/C(=N/O)Nc3ccc(F)c(Cl)c3)c2[nH]1"
  EC50 / nM: 136
- Structure Notation: "O/N=C(\\Nc1ccc(F)c(Cl)c1)c1ccnc2nc(CCNC3CC3)[nH]c12"
  EC50 / nM: 1260
- Structure Notation: "O=C1CCCN1CCNc1nc2nccc(/C(=N/O)Nc3ccc(F)c(Cl)c3)c2[nH]1"
  EC50 / nM: 4820
- Structure Notation: "COc1cccc(N/C(=N\\O)c2ccnc3nc[nH]c23)c1"
  EC50 / nM: 3890
- Structure Notation: "O/N=C(\\Nc1ccc(F)c(Cl)c1)c1ccnc2nc(NCCN3CCC3)[nH]c12"
  EC50 / nM: 1120
- Structure Notation: "CN(CCc1nc2nccc(/C(=N/O)Nc3ccc(F)c(Cl)c3)c2[nH]1)CC1CC1"
  EC50 / nM: 565
- Structure Notation: "CNc1nc2nccc(/C(=N/O)Nc3cccc(Cl)c3)c2[nH]1"
  EC50 / nM: 383

---

Below, each of the compounds is paired with its reported EC50 value.
# Tgt: IDO1 (Homo sapiens, UniProt P14902)
# Construct: HeLa cells were treated with a test compound in the presence of IFNγ, which induces IDO1 expression; host or cells: H1-HeLa cells, IDO1 induced with IFNγ
# Protocol Notes: Cell-based (HeLa) assay for measurement of IDO1 inhibition (kynurenine levels in supernatant after IFNγ induction)
# Condition Details: HeLa cells, IFNγ-induced IDO1, kynurenine in supernatant after 48 hour incubation; geometric mean of a minimum of four determinations

- Compound: "O/N=C(\\Nc1ccc(F)c(Cl)c1)c1ccnc2nc(CN3CCCC3)[nH]c12 [Example 139]"
  EC50 (µM): 1.4
- Compound: "N#Cc1cc(N/C(=N\\O)c2ccnc3nc[nH]c23)ccc1F [Example 90]"
  EC50 (µM): 1.05
- Compound: "O/N=C(\\Nc1ccc(Br)cc1)c1ccnc2nc[nH]c12 [Example 88]"
  EC50 (µM): 0.916
